We begin with a simple list: items and their reported Normal melting temperature.
details: Crystal; DTA
Numbers only here, please. The scale is °C.

Q: Can you look up the measured Normal melting temperature of CC(=O)c1ccc(F)cc1 [1-(4-fluorophenyl)ethanone] for me?
Result: -4

Q: For CC(=O)c1ccc(Br)cc1 [4'-bromoacetophenone] , what is its reported Normal melting temperature?
Result: 51.1

Q: Name the reported Normal melting temperature value associated with the molecule CC(=O)c1ccc(I)cc1 [para-iodoacetophenone]
Result: 84.5

Q: What Normal melting temperature value was documented for this molecule, CC(=O)c1ccc(Cl)cc1 [4'-chloroacetophenone] ?
Result: 17.2

----------
test: Molar enthalpy of transition or fusion; settings: Crystal; DSC
Item-by-item account of Molar enthalpy of transition or fusion
Write the quantity with the unit trailing the number.

| MOLECULE | Molar enthalpy of transition or fusion |
| --- | --- |
| CC(=O)c1ccc(F)cc1 [1-(4-fluorophenyl)ethanone] | 3.39 kcal/mol |
| CC(=O)c1ccc(Br)cc1 [4'-bromoacetophenone] | 4.57 kcal/mol |
| CC(=O)c1ccc(I)cc1 [para-iodoacetophenone] | 5.62 kcal/mol |

Next up:
Q: May I ask what Molar enthalpy of transition or fusion has been recorded for CC(=O)c1ccc(Cl)cc1 [4'-chloroacetophenone] ?
Result: 3.66 kcal/mol
